Target: T1, human claudin 6 (CLDN6) (human, UniProt P56747 1-220)
T1 construct: also called human CLDN6; hCLDN6
T1 sequence: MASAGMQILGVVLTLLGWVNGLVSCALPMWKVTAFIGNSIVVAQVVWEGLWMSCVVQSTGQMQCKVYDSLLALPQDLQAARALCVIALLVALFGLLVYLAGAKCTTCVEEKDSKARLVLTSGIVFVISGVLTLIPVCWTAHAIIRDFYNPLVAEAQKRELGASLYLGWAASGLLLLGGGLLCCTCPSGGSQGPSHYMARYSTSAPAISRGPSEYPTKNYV
Assay: FACS, HEK293T-hCLDN6 cells

{"columns": ["Binder", "FACS Emax ratio to BG87P"],
 "data": [
  ["BG87P-21 (antibody, V domains shown) VH: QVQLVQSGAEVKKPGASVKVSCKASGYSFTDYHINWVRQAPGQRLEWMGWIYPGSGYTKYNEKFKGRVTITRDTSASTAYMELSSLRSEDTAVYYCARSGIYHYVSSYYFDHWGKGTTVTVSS VL: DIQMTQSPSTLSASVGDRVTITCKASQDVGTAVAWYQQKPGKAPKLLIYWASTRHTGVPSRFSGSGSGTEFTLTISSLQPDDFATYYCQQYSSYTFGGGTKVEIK", "0.66 ratio"],
  ["BG87P-33 (antibody, V domains shown, Framework-swapped variant; also called BG87-33) VH: EVQLQESGGGLVQPGGSLRLSCAASGYSFTDYHINWVRQAPGKGLEWVSYIYPGSGHTKYNEKFKGRFTISRDTSKNTAYLQMNSLRAEDTAVYYCARSGIYHYVSSYYFDHWGQGTLVTVSS VL: DIQMTQSPSTLSASVGDRVTITCKASQDAGSAVAWYQQKPGKAPKLLIYWASTRHTGVPSRFSGSGSGTEFTLTISSLQPDDFATYYCQQYSSYTFGGGTKVEIK", "0.91 ratio"],
  ["BG87P-31 (antibody, V domains shown, Solubility engineering variant of BG87P-21) VH: QVQLQQSGAETKKPGASVKVSCKASGYSFTDYHINWVRQASGQRLEWMGYIYPGSGHTKKNEKFKGRVTITRDTSASTAYMELSSLRSEDTAVYYCARSGIYHYVSSYYFDHWGKGTTVTVSS VL: DIQMTQSPSTLSASVGDRVTITCKASQDAGSAVAWYQQKPGKAPKLLIKWASTRHTGVPSRFSGSGSGTEFTLTISSLQPDDFATYYCQQYSSYTFGGGTKVEIK", "0.76 ratio"]
]}
